Entries and their inhibition at 1 µM
# System under test: ABHD6 (Mus musculus (Mouse), UniProt Q8R2Y0)
# Sequence (Q8R2Y0 whole entry): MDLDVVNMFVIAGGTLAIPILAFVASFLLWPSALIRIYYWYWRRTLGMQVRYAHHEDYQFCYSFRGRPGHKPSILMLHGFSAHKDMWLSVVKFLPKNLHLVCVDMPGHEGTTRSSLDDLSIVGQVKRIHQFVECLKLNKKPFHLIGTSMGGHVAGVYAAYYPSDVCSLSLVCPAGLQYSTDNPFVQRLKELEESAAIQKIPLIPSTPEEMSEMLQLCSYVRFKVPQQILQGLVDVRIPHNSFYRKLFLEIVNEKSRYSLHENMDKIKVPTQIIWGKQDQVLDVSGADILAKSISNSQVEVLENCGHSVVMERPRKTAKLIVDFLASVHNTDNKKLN
# Test details: In vitro competitive activity-based protein profiling (mouse brain membrane fraction or cell lysates), ABHD6 band
# Format: biochemical
# Stated conditions: 1 μM, mouse proteome; read-out: ABHD6 % Inh 1 μM (mouse)

Worked examples follow.
molecule=O=C(OC(C(F)(F)F)C(F)(F)F)N1CCC2(CCCN2Cc2ccc(N3CCOCC3)c(C(F)(F)F)c2)CC1 system_under_test="ABHD6 (Mus musculus (Mouse), UniProt Q8R2Y0)" measured_endpoint="inhibition at 1 µM" recorded_value="25 to 75%"
molecule=O=C(OC(C(F)(F)F)C(F)(F)F)N1CCC2(CCCN2Cc2cccc(N3CCOCC3)c2)CC1 system_under_test="ABHD6 (Mus musculus (Mouse), UniProt Q8R2Y0)" measured_endpoint="inhibition at 1 µM" recorded_value="< 25%"
molecule=O=C(OC(C(F)(F)F)C(F)(F)F)N1CCC2(CCCN2Cc2ccc(C(F)(F)F)cc2N2CCCCC2)CC1 system_under_test="ABHD6 (Mus musculus (Mouse), UniProt Q8R2Y0)" measured_endpoint="inhibition at 1 µM" recorded_value="< 25%"
molecule=CC(C)CN1CCc2cccc(CN3CCC4(CCN(C(=O)OC(C(F)(F)F)C(F)(F)F)CC4)C3)c2C1 system_under_test="ABHD6 (Mus musculus (Mouse), UniProt Q8R2Y0)" measured_endpoint="inhibition at 1 µM" recorded_value="≥ 75%"
molecule=NC(=O)c1cc(CN2CCCC23CCN(C(=O)OC(C(F)(F)F)C(F)(F)F)CC3)ccc1C(F)(F)F system_under_test="ABHD6 (Mus musculus (Mouse), UniProt Q8R2Y0)" measured_endpoint="inhibition at 1 µM" recorded_value="25 to 75%"

Task item: What value of inhibition at 1 µM has been recorded for this entry: O=C(OC(C(F)(F)F)C(F)(F)F)N1CCC2(CCCN2Cc2ccc(Cl)cc2N2CCCCCC2)CC1
Reply: < 25%

Task item: What value of inhibition at 1 µM has been recorded for this entry: CC(=O)N1CCc2cccc(CN3CCC4(CCN(C(=O)OC(C(F)(F)F)C(F)(F)F)CC4)C3)c2C1
Reply: ≥ 75%

Task item: What value of inhibition at 1 µM has been recorded for this entry: O=C(OC(C(F)(F)F)C(F)(F)F)N1CCC2(CCN(Cc3ccc4c(c3)OCCO4)C2)CC1
Reply: ≥ 75%

Task item: What value of inhibition at 1 µM has been recorded for this entry: CS(=O)(=O)C1CCN(c2cc(C(F)(F)F)ccc2CN2CCCC23CCN(C(=O)OC(C(F)(F)F)C(F)(F)F)CC3)C1 (stereo not drawn)
Reply: < 25%

Task item: What value of inhibition at 1 µM has been recorded for this entry: O=C(OC(C(F)(F)F)C(F)(F)F)N1CCC2(CCCN2Cc2ccc(C(F)(F)F)cc2OC2CCS(=O)(=O)CC2)CC1
Reply: < 25%

Task item: What value of inhibition at 1 µM has been recorded for this entry: O=C(OC(C(F)(F)F)C(F)(F)F)N1CCC2(CCCN2Cc2cc(Oc3cccnc3)cc(C(F)(F)F)c2)CC1
Reply: 25 to 75%

Task item: What value of inhibition at 1 µM has been recorded for this entry: O=C(COc1cc(CN2CCCC23CCN(C(=O)OC(C(F)(F)F)C(F)(F)F)CC3)cc(C(F)(F)F)c1)N1CCCC1
Reply: < 25%

Entry source: patent US10030020B2
